# tested_on: T1, ubiquitin acetylated at K11 (UniProt P0CG48 1-76, acetyllysine (AcK) at position 11)
# T1 construct: ubiquitin (Ub), the 76-residue cut product of its precursors; codon-optimized cDNA; K11 replaced by acetyllysine; 15N isotopically labelled in the NMR titration; also called Ub 11AcK; source: E. coli B834 (DE3), amber suppression with AcK-RS/tRNA, purified (HisTrap, His-tag removed with UCHL3, HiTrap SP); not shown: His6, C-terminal, cleaved
# assay_details: NMR titration; unlabelled Ubiquilin-2 UBA domain added stepwise to 15N-labelled Ub variants (33 µM Ub 11AcK and nonmodified Ub; 157 µM the other variants); 1H-15N HSQC, 298 K, 18.8 T, 20 mM NaH2PO4 pH 6.8, 5% D2O; global fit of six residues assuming 1:1 binding
# study_conditions: both partners purified

>  <binder>
RFQQQLEQLNAMGFLNREANLQALIATGGDINAAIERLLGS (domain or fragment, UniProt Q9UHD9 581-621, looked up, Ubiquilin-2 (Chap1, hPLIC-2), human, UBA domain; Unlabelled; also called UQ2-UBA; Chap1; source: E. coli BL21 (DE3) Rosetta, purified (Glutathione Sepharose, TEV cleavage, SEC); not shown: GST, N-terminal, cleaved) [UBA domain of human Ubiquilin-2]

>  <Kd (µM)>
8

$$$$
